Each entry below carries its reported MIC.
Test system: Staphylococcus aureus S13E
Type: cell-based

molecule	MIC
CC(C)CC(C(=O)NC1C(=O)NC(CC(N)=O)C(=O)NC2C(=O)NC3C(=O)NC(C(=O)NC(C(=O)O)c4cc(O)cc(O)c4-c4cc3ccc4O)C(OC3CC(C)(N)C(O)C(C)O3)c3ccc(c(Cl)c3)Oc3cc2cc(c3OC2OC(CO)C(O)C(O)C2OC2CC(C)(NCc3ccccn3)C(O)C(C)O2)Oc2ccc(cc2Cl)C1O)N(C)Cc1ccccn1 (stereo not drawn)	32 µg/mL
CNC(CC(C)C)C(=O)NC1C(=O)NC(CC(N)=O)C(=O)NC2C(=O)NC3C(=O)NC(C(=O)NC(C(=O)O)c4cc(O)cc(O)c4-c4cc3ccc4O)C(OC3CC(C)(N)C(O)C(C)O3)c3ccc(c(Cl)c3)Oc3cc2cc(c3OC2OC(CO)C(O)C(O)C2OC2CC(C)(NCCCCc3ccc(OC)cc3)C(O)C(C)O2)Oc2ccc(cc2Cl)C1O (stereo not drawn)	≤ 0.06 µg/mL
CNC(CC(C)C)C(=O)NC1C(=O)NC(CC(N)=O)C(=O)NC2C(=O)NC3C(=O)NC(C(=O)NC(C(=O)O)c4cc(O)cc(O)c4-c4cc3ccc4O)C(OC3CC(C)(N)C(O)C(C)O3)c3ccc(c(Cl)c3)Oc3cc2cc(c3OC2OC(CO)C(O)C(O)C2OC2CC(C)(NCc3ccc(OC4CCCCC4)cc3)C(O)C(C)O2)Oc2ccc(cc2Cl)C1O (stereo not drawn)	≤ 0.06 µg/mL

---

Each entry below carries its reported mean geometric MIC, Vancomycin Sensitive Strains.
Tested on: vancomycin-susceptible enterococci
Assay: broth micro-dilution, mean geometric MIC
Type: cell-based, Enterococcus faecium and Enterococcus faecalis
Conditions: enterococci, 24-hour incubation
observable: mean geometric MIC, Vancomycin Sensitive Strains (µg/mL)

compound	valueReported
CC(C)CC(C(=O)NC1C(=O)NC(CC(N)=O)C(=O)NC2C(=O)NC3C(=O)NC(C(=O)NC(C(=O)O)c4cc(O)cc(O)c4-c4cc3ccc4O)C(OC3CC(C)(N)C(O)C(C)O3)c3ccc(c(Cl)c3)Oc3cc2cc(c3OC2OC(CO)C(O)C(O)C2OC2CC(C)(NCc3ccc(Oc4ccc([N+](=O)[O-])cc4)cc3)C(O)C(C)O2)Oc2ccc(cc2Cl)C1O)N(C)Cc1ccc(Oc2ccc([N+](=O)[O-])cc2)cc1 (stereo not drawn)	0.22
CN[C@H](CC(C)C)C(=O)N[C@H]1C(=O)N[C@@H](CC(N)=O)C(=O)N[C@H]2C(=O)N[C@H]3C(=O)N[C@H](C(=O)N[C@H](C(=O)O)c4cc(O)cc(O)c4-c4cc3ccc4O)[C@H](O[C@H]3C[C@](C)(N)[C@@H](O)[C@H](C)O3)c3ccc(c(Cl)c3)Oc3cc2cc(c3O[C@@H]2O[C@H](CO)[C@@H](O)[C@H](O)[C@H]2O[C@H]2C[C@](C)(NCc3ccc(Oc4ccc(C(C)(C)C)cc4)cc3)[C@@H](O)[C@H](C)O2)Oc2ccc(cc2Cl)[C@H]1O	0.11
CC(C)CC(C(=O)NC1C(=O)NC(CC(N)=O)C(=O)NC2C(=O)NC3C(=O)NC(C(=O)NC(C(=O)O)c4cc(O)cc(O)c4-c4cc3ccc4O)C(OC3CC(C)(N)C(O)C(C)O3)c3ccc(c(Cl)c3)Oc3cc2cc(c3OC2OC(CO)C(O)C(O)C2OC2CC(C)(N)C(O)C(C)O2)Oc2ccc(cc2Cl)C1O)N(C)Cc1ccc(O)cc1 (stereo not drawn)	1
